Tested Target: T1, full-length beta-Catenin (Uniprot ID P35222) (Homo sapiens (Human), UniProt P35222 1-781)
T1 construct: also called bCat; B-Catenin
T1 sequence: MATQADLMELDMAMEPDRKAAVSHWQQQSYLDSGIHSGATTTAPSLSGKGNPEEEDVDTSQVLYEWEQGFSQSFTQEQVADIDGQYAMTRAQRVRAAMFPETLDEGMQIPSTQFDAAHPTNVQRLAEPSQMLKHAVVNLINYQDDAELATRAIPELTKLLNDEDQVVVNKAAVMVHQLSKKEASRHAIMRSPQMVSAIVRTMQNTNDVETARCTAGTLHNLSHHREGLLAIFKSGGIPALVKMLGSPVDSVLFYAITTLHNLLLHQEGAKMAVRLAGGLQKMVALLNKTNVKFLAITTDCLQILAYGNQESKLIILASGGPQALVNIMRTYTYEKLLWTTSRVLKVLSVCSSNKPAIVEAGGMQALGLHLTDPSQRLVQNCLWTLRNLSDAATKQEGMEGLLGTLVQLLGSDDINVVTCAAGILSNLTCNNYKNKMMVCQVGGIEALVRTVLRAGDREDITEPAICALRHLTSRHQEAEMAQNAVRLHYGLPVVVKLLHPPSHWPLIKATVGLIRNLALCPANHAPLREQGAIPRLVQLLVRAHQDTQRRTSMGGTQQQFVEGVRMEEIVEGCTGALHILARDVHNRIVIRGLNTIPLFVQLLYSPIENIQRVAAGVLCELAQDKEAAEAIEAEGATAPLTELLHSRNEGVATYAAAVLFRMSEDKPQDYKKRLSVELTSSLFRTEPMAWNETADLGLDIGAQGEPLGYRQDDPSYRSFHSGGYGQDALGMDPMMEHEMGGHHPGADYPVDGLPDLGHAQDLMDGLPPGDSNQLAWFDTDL
Assay Name: fluorescence polarization competition; 10 nM full-length beta-catenin, competitor 10 nM 5FAM-TCF4(10-53)
Starred links: 1 amine or outer side, 2 acyl side, 3 side chain; linkers in the order of their positions; H or OH if unused. Positions of bridges follow the written chain, without caps; N, C: chain ends. Non-standard residues stand in square brackets, D forms with d. Primed or numbered codes have the meaning given here. B5(4) = 2,2-bis(4-pentenyl)glycine = 2-amino-2-(pent-4-en-1-yl)hept-6-enoic acid (stitching residue), C=CCCCC(CCCC=C)(N[*:1])C(=O)[*:2]; B5(9) = 2-amino-2-(pent-4-en-1-yl)hept-6-enoic acid (2,2-bis(4-pentenyl)glycine), C=CCCCC(CCCC=C)(N[*:1])C(=O)[*:2]; B5(19) = 2-amino-2-(pent-4-en-1-yl)hept-6-enoic acid (bis(4-pentenyl)glycine), C=CCCCC(CCCC=C)(N[*:1])C(=O)[*:2]; 23FF = 2,3-difluoro-L-phenylalanine, O=C([C@H](Cc1cccc(F)c1F)N[*:1])[*:2]; Phe(3-CF3) = N[C@@H](Cc1cccc(C(F)(F)F)c1)C(=O)O; Phe(3,5-F2) = N[C@@H](Cc1cc(F)cc(F)c1)C(=O)O; Bta = N[C@@H](Cc1csc2ccccc12)C(=O)O; αAllylPro = C=CC[C@@]1(C(=O)O)CCCN1; S8 = C=CCCCCCC[C@](C)(N)C(=O)O
Measured Attribute: EC50 (µM)
A number alone suffices; assume µM.

Look over these answered cases.
Binder	EC50 (µM)
Ac-[αAllylPro]DA[B5(4)]DDAA[Phe(3-CF3)]V[S8]F[Bta]Q-NH2 (staple 1-4, 4-11, Stapled peptide composition (olefin metathesis)) [I-373]	0.945
XDAXDHAAFVXFXQ (not fully specified; Ac-PL3-Asp-Ala-B5-Asp-His-Ala-Ala-Phe-Val-S8-3FF-BztA-Gln-NH2: N-terminal acetyl, C-terminal amide; non-natural PL3(1), B5(4), S8(11), 3FF(12), BztA(13); staples PL3-B5 and B5-S8, Stapled peptide) [I-396]	3.43
Ac-[αAllylPro]DA[B5(19)]DDAAHA[S8]F[Bta]Q-NH2 (staple 1-4, 4-11; also: later eluting HPLC staple isomer, Stapled peptide) [I-364]	5

Quick check: EC50 of Ac-[αAllylPro]DA[B5(9)]DEAAFV[S8][23FF][Bta]Q-NH2 (staple 1-4, 4-11; also: later eluting HPLC isomer, E/Z not assigned, Stapled peptide) [I-389] ?
5

Item under review: Ac-[αAllylPro]DA[B5(9)]DEAAFV[S8][Phe(3,5-F2)][Bta]Q-NH2 (staple 1-4, 4-11, Stapled peptide composition (olefin metathesis)) [I-394] . Reported EC50?
5

Reference source for all entries: patent US20240116985A1
